Recorded values, source PubChem BioAssay (NCI).

# System: TK-10 renal
# method: NCI-60 one-dose screen, 48 h
# condition.set: 10 µM unless noted
About 83,000 compounds went through this panel and 20% of them were active in at least one assay; those are over-represented in the sample as a whole. Active and inactive are the calls of the source. Rule for the calls: active = growth percent below 10; inactive = the rest.
Tick one outcome: yes for active, no for inactive

molecule | class.name
COc1cc(N)c2nccc(C)c2c1OC | no
CCCCCCC(=O)C(C)C | no
CCCCCSc1ccc2nc(NC(=O)OCC)sc2c1 | no
CC(C)OC(=O)[C@H](C)N[P@@](=O)(OC[C@@]1(C)O[C@@H](n2cc(F)c(N)nc2=O)C[C@@H]1O[P@](=O)(N[C@@H](C)C(=O)OC(C)C)Oc1ccccc1)Oc1ccccc1 | no
COc1ccc(-c2nc(SCC(C)C)nc(Nc3ccc([N+](=O)[O-])cc3)c2C#N)cc1 | no
CCCCCCCCc1ccc(CCC(N)(CO)CO)cc1 | no

Lookup: Please state the recorded outcome for this molecule: CCCCCCCCCCCC(=O)OC(C)C(=O)Nc1ccccc1 (configuration not stated)
Found: no

Lookup: Please state the recorded outcome for this molecule: COc1cccc(CNC(=O)c2cccc(C3CC(=O)c4c(cc(OC)c(OC)c4OC)O3)c2)c1 (configuration not stated)
Found: no

Lookup: Please state the recorded outcome for this molecule: COc1ccc(/C=C/C(=O)/C=C/c2cc3ccccc3[nH]c2=O)cc1
Found: no

Lookup: Please state the recorded outcome for this molecule: O=C1OC(c2ccc(-c3ccccc3)cc2)=C/C1=C/c1c2ccccc2cc2ccccc12
Found: no

Lookup: Please state the recorded outcome for this molecule: Nc1ccc(S(=O)(=O)c2ccc(NO)cc2)cc1
Found: no

Lookup: Please state the recorded outcome for this molecule: Cc1ncc(C(=O)Nc2ccc(CN3CCN(C)CC3)c(C(F)(F)F)c2)cc1C#Cc1c(N)ncc2ccc(F)cc12
Found: yes

Lookup: Please state the recorded outcome for this molecule: O=C(NCCCl)Nc1nccnc1OCc1ccc(F)cc1
Found: no

Lookup: Please state the recorded outcome for this molecule: C=CCNCCC#N
Found: no

Lookup: Please state the recorded outcome for this molecule: Clc1ccc(N/N=C(\c2ccccc2)c2ccccn2)nc1
Found: no

Lookup: Please state the recorded outcome for this molecule: CCOC(=O)C1C(=O)C(=O)N(C(C)C)C1C(=O)OCC (configuration not stated)
Found: no

Lookup: Please state the recorded outcome for this molecule: CC(C)(C)C(=O)CCCCCCCC/C=C/CCCC(O)c1ccco1 (configuration not stated)
Found: no

Lookup: Please state the recorded outcome for this molecule: CCCCCCCCCCN1CC2CCCCC2C1 (configuration not stated)
Found: no

Lookup: Please state the recorded outcome for this molecule: CCCC(=O)NNc1[nH]c(-c2ccc(OC)cc2)cc1C(=O)OCC
Found: yes

Lookup: Please state the recorded outcome for this molecule: COc1ccc(Oc2[nH]n(C3=Nc4ccccc4Sc4ccccc43)c(=O)c2C#N)cc1
Found: no

Lookup: Please state the recorded outcome for this molecule: CCOC(=O)c1csc(-c2ccc(COC(=O)c3ccccc3)o2)n1
Found: no

Lookup: Please state the recorded outcome for this molecule: COc1cc(-c2nn(-c3ccc(NC(=O)c4cc(Cl)cc(Cl)c4)cc3)cc2-c2ccncc2)ccc1Cl
Found: no

Lookup: Please state the recorded outcome for this molecule: CC1=C(C)C[C@]2(C(=O)O[C@H]3CCCC[C@@H]32)[S@](=O)C1
Found: no
